Data credit: BindingDB's records for doi:10.1021/jm040190e

- RUN DESCRIPTION: Mitogenic stimulation or antagonism of 30 nM quinpirole-stimulated mitogenesis in CHO cells expressing human dopamine D3 receptor
With a cut-off of 6 nM, any IC50 strictly below it is called T; any IC50 meeting it or above is called F.

Task: In plain terms, does O=C(NCCCCN1CCN(c2cccc(Cl)c2Cl)CC1)c1ccc(-c2ccccn2)cc1 come in under 6 nM for IC50?
Result: F

Task: Same thing, different compound: O=C(NC/C=C/CN1CCN(c2cccc(Cl)c2Cl)CC1)c1ccc([N+](=O)[O-])cc1
Result: T

Task: Let us now turn to O=C(NC/C=C/CN1CCN(c2cccc(Cl)c2Cl)CC1)c1ccc(O)cc1
Result: T

Task: Same again, this time with O=C(NC/C=C/CN1CCN(c2cccc(Cl)c2Cl)CC1)c1ccc2c(c1)Cc1ccccc1-2
Result: F

Task: And then O=C(NC/C=C/CN1CCN(c2cccc(Cl)c2Cl)CC1)c1ccc(I)cc1 , what is it?
Result: F

Task: What do you have for COc1ccc(C(=O)NC/C=C/CN2CCN(c3cccc(Cl)c3Cl)CC2)cc1 ?
Result: T
